- System: HEL
- procedure_summary: Induction of apoptosis in human HEL cells at 10 uM after 48 hrs by annexinV-propidium iodide staining-based flow cytometric analysis
- Type: functional, cell-based
The source made the active and inactive calls. The rule behind the calls is not given here.
The categories you may choose from are active, inactive

Take a look at these entries with their results.
CN(C)Cc1cc(/C=C/c2ccc(O)c(CN(C)C)c2)ccc1O active
C/C(=C(/C)c1ccc(O)c(CN(C)C)c1)c1ccc(O)c(CN(C)C)c1 active
CN(C)Cc1ccc(/C=C/c2ccc(CN(C)C)c(O)c2)cc1O inactive

We next turn to a different molecule, shown below.
In: What did this assay record as the result for C/C(=C(/C)c1ccc(CN(C)C)c(O)c1)c1ccc(CN(C)C)c(O)c1 ?
Out: active

Values compiled from ChEMBL document CHEMBL1944589.
